system: iRFP L. infantum amastigotes infecting mouse splenocytes; experiment: Antileishmanial activity on iRFP L. infantum amastigotes in ex vivo murine splenic explants; type: cell-based, Leishmania infantum; details: Leishmania infantum, Splenocyte; splenic-infecting iRFP L. infantum amastigotes, 72 h, 37 °C; read-out: EC50 (μM) L. infantum amastigotes
Consider the following partition of reported EC50 into named classes: bin 0: < 0.04 µM; bin 1: ≥ 0.04 µM and < 0.3 µM; bin 2: ≥ 0.3 µM

Query: Band for the recorded EC50 of COc1cnc2c(c1)C(=O)c1c-2n(CCCN2CCOCC2)c(=O)c2ccc(OC)cc12 [Compound 17] ?
Response: bin 1

Query: Lab log: COC(=O)c1ccc2c(c1)C(=O)c1c-2n(CCCN)c(=O)c2cc([N+](=O)[O-])ccc12 [Compound 4] — assign EC50 category
Response: bin 1

Query: Which category does the recorded EC50 put O=C1c2cccnc2-c2c1c1ccccc1c(=O)n2CCCn1ccnc1 [Compound 13] in?
Response: bin 2

Query: Categorize the following entry: NCCCn1c2c(c3ccccc3c1=O)C(=O)c1ccccc1-2 [Compound 2]
Response: bin 1
